test-details: clinical;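 also: Open-label dose-escalation clinical trial, plasma drug levels measured by validated LC-MS, sampling during the first 4-week treatment cycle only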
condition-info: human, in vivo, iv, 300 mg/m2
measured-property: Tmax (h)

>>> meas_value("C=CCNC1=C2C[C@@H](C)C[C@H](OC)[C@H](O)[C@@H](C)/C=C(\\C)[C@H](OC(N)=O)[C@@H](OC)/C=C\\C=C(/C)C(=O)NC(=CC1=O)C2=O")
1.9

----------
test-details: clinical
condition-info: human, in vivo, iv, 375 mg/m2
measured-property: AUC(0-t) (ng·h/mL)

>>> meas_value("C=CCNC1=C2C[C@@H](C)C[C@H](OC)[C@H](O)[C@@H](C)/C=C(\\C)[C@H](OC(N)=O)[C@@H](OC)/C=C\\C=C(/C)C(=O)NC(=CC1=O)C2=O")
27500
